experiment: small molecules captured by biotinylated probe aFGF2 – biochemical, small-molecule microarray, fluorescence 635/667, stem cell growth factor project, primary screen (AID 1067); details: higher = more signal;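 note: measures binding of biotinylated aFGF2 protein to printed compounds on slides; z-score merges feature fluorescence and signal-to-noise across triplicate slides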
Below, each of the compounds is paired with its reported composite z-score value.
Measured property: composite z-score

INSERT INTO assay_data (compound, measurement) VALUES
  ('OCCCc1cc[n+](Cc2cccc(OC(F)(F)F)c2)cc1', -0.085),
  ('O=C1NC(=O)C2C1C=CC(C(O)c1cccs1)N2Nc1ccccn1 (configuration not stated)', 0.0094),
  ('O=C1OCC=C[C@H]2OC34C=CCN(c5ccc(Cl)cc5)C(=O)[C@H]3N(CCCO)C(=O)[C@@H]4[C@@H]12 (some centres not stated)', -0.0847),
  ('C=CCOC(=O)[C@H]1[C@@H]2C(=O)O[C@@H](c3ccccc3)[C@@H](c3ccccc3)N2[C@@H](c2ccc(OCCOC(=O)[C@H]3C[C@H]4C(=O)N[C@@H](CCCC[N+](C)(C)C)C(=O)N4[C@H]3c3ccc(O)cc3)cc2)[C@]12C(=O)Nc1ccccc12', -0.1),
  ('C#C[C@H]1Oc2ccccc2S(=O)(=O)N2CCC[C@@H]12', -0.116),
  ('CC(C)C(=C=CC[C@H](O)c1ccccc1OCCO)CCO', -0.152),
  ('COc1ccc(C#Cc2ccc3c(c2)[C@]2(C(=O)N3)[C@H](C(=O)N3CCN(c4ncccn4)CC3)[C@H]3C(=O)O[C@H](c4ccccc4)[C@H](c4ccccc4)N3[C@@H]2c2ccc(O)cc2)cc1', -0.232);
